Data origin: ChEMBL document CHEMBL3232722

test.target: Cyclin-dependent kinase 2/cyclin E1 (Homo sapiens)
method.description: Inhibition of CDK2/cyclin E (unknown origin) expressed in Sf9 cells using histone H1 as substrate in presence of [gamma33P]ATP
quantity.name: IC50

Past entries and their recorded results:
Cc1nn(C)c2nnc(Nc3ccc(S(=O)(=O)N4CCN(C)CC4)cc3)nc12; > 50 µM
Cc1nn(C)c2nnc(Nc3ccc(S(=O)(=O)N4CCNCC4)cc3)nc12; > 25 µM
Cc1nn(C)c2nnc(Nc3ccc(S(=O)(=O)N4CCCC4)cc3)nc12; > 50 µM
Cc1nn(C)c2nnc(Nc3ccc(S(=O)(=O)NCCO)cc3)nc12; > 50 µM

Okay, next one:
Item Cc1nn(C)c2nnc(Nc3ccc(S(=O)(=O)NCCN4CCOCC4)cc3)nc12 : provide IC50 > 50 µM
